- measurement.protocol: Spectroscopy of HaloTag ligands and HaloTag conjugates
- Format: physicochemical
- condition.set: 10 mM HEPES, pH 7.3

| compound | λem [nm] |
| --- | --- |
| CC1(C)C2=CC(=[N+]3CC(C(=O)NCCOCCOCCNC(=O)CCCC[C@@H]4SC[C@@H]5NC(=O)N[C@@H]54)C3)C=CC2=C(c2cc(C(=O)NCCOCCOCCCCCCCl)ccc2C(=O)[O-])c2ccc(N3CCC3)cc21 (some centres unmarked) [14HTL, biotin–JF608–HaloTag ligand] | 634 |
| C[Si]1(C)c2cc(N3CC(F)C3)ccc2C2(OC(=O)c3ccc(C(=O)NCCOCCOCCCCCCCl)cc32)c2ccc(N3CC(F)C3)cc21 [6HTL, JF635–HaloTag ligand, reference compound] | 658 |
| O=C(CCCCC1SCC2NC(=O)NC21)NCCOCCOCCNC(=O)C1C[N+](=c2ccc3c(-c4cc(C(=O)NCCOCCOCCCCCCCl)ccc4C(=O)[O-])c4ccc(N5CCC5)cc4oc-3c2)C1 (centres unmarked) [13HTL, biotin–JF549–HaloTag ligand] | 575 |
| C[Si]1(C)C2=CC(=[N+]3CC(F)(C(=O)NCCOCCOCCNC(=O)CCCC[C@@H]4SC[C@@H]5NC(=O)N[C@@H]54)C3)C=CC2=C(c2cc(C(=O)NCCOCCOCCCCCCCl)ccc2C(=O)[O-])c2ccc(N3CC(F)C3)cc21 (some centres unmarked) [16HTL, biotin–JF635–HaloTag ligand] | 655 |
| C[Si]1(C)C2=CC(=[N+]3CC(C(=O)NCCOCCOCCNC(=O)CCCC[C@@H]4SC[C@@H]5NC(=O)N[C@@H]54)C3)C=CC2=C(c2cc(C(=O)NCCOCCOCCCCCCCl)ccc2C(=O)[O-])c2ccc(N3CCC3)cc21 (some centres unmarked) [15HTL, biotin–JF646–HaloTag ligand] | 666 |

###

- measurement.protocol: Determination of logD7.4 (miniaturized shake flask, octanol–PBS)
- Type: physicochemical
- condition.set: pH 7.4
- Experimental: Detailed descriptions of the materials and methods are provided in the supporting information. […] Spectroscopic properties (λabs, λem, ε, and Φf) were determined in 10 mM HEPES, pH 7.3. The lactone–zwitterion equilibrium constants (KL–Z) were measured in 1:1 (v/v) dioxane–water mixtures. Octanol–water distribution coefficients (logD7.4) were determined by miniaturized shake-flask partitioning experiments using PBS (pH 7.4) and 1-octanol. […]

| compound | logD |
| --- | --- |
| C[Si]1(C)c2cc(N3CC(F)C3)ccc2C2(OC(=O)c3ccccc32)c2ccc(N3CC(F)C3)cc21 [compound 6, JF635] | 4.1 |
| C[Si]1(C)C2=CC(=[N+]3CC(C(=O)NCCOCCOCCNC(=O)CCCC[C@@H]4SC[C@@H]5NC(=O)N[C@@H]54)C3)C=CC2=C(c2cc(C(=O)NCCOCCOCCCCCCCl)ccc2C(=O)[O-])c2ccc(N3CCC3)cc21 (some centres unmarked) [15HTL, biotin–JF646–HaloTag ligand] | 3.06 |
| C[Si]1(C)C2=CC(=[N+]3CC(F)(C(=O)NCCOCCOCCNC(=O)CCCC[C@@H]4SC[C@@H]5NC(=O)N[C@@H]54)C3)C=CC2=C(c2cc(C(=O)NCCOCCOCCCCCCCl)ccc2C(=O)[O-])c2ccc(N3CC(F)C3)cc21 (some centres unmarked) [16HTL, biotin–JF635–HaloTag ligand] | 3.6 |
| C[Si]1(C)c2cc(N3CC(F)C3)ccc2C2(OC(=O)c3ccc(C(=O)NCCOCCOCCCCCCCl)cc32)c2ccc(N3CC(F)C3)cc21 [6HTL, JF635–HaloTag ligand, reference compound] | 3.82 |
| C[Si]1(C)c2cc(N3CCC3)ccc2C2(OC(=O)c3ccccc32)c2ccc(N3CCC3)cc21 [compound 5, Janelia Fluor 646] | 3.98 |

###

- measurement.protocol: Spectroscopy of HaloTag ligands and HaloTag conjugates
- Format: physicochemical
- condition.set: 10 mM HEPES, pH 7.3
measurement.kind: Φf

| molecule | reading |
| --- | --- |
| C[Si]1(C)c2cc(N3CC(F)C3)ccc2C2(OC(=O)c3ccc(C(=O)NCCOCCOCCCCCCCl)cc32)c2ccc(N3CC(F)C3)cc21 [6HTL, JF635–HaloTag ligand, reference compound] | 0.60 |
| C[Si]1(C)C2=CC(=[N+]3CC(C(=O)NCCOCCOCCNC(=O)CCCC[C@@H]4SC[C@@H]5NC(=O)N[C@@H]54)C3)C=CC2=C(c2cc(C(=O)NCCOCCOCCCCCCCl)ccc2C(=O)[O-])c2ccc(N3CCC3)cc21 (some centres unmarked) | 0.56 |
| O=C(CCCCC1SCC2NC(=O)NC21)NCCOCCOCCNC(=O)C1C[N+](=c2ccc3c(-c4cc(C(=O)NCCOCCOCCCCCCCl)ccc4C(=O)[O-])c4ccc(N5CCC5)cc4oc-3c2)C1 (centres unmarked) | 0.90 |
| CC1(C)C2=CC(=[N+]3CC(C(=O)NCCOCCOCCNC(=O)CCCC[C@@H]4SC[C@@H]5NC(=O)N[C@@H]54)C3)C=CC2=C(c2cc(C(=O)NCCOCCOCCCCCCCl)ccc2C(=O)[O-])c2ccc(N3CCC3)cc21 (some centres unmarked) | 0.65 |
| C[Si]1(C)C2=CC(=[N+]3CC(F)(C(=O)NCCOCCOCCNC(=O)CCCC[C@@H]4SC[C@@H]5NC(=O)N[C@@H]54)C3)C=CC2=C(c2cc(C(=O)NCCOCCOCCCCCCCl)ccc2C(=O)[O-])c2ccc(N3CC(F)C3)cc21 (some centres unmarked) | 0.60 |

###

- measurement.protocol: Determination of lactone–zwitterion equilibrium constant KL–Z
- Assay type: physicochemical
- condition.set: 1:1 (v/v) dioxane–water

| molecule | KL–Z |
| --- | --- |
| CC1(C)C2=CC(=[N+]3CC(C(=O)NCCOCCOCCNC(=O)CCCC[C@@H]4SC[C@@H]5NC(=O)N[C@@H]54)C3)C=CC2=C(c2cc(C(=O)NCCOCCOCCCCCCCl)ccc2C(=O)[O-])c2ccc(N3CCC3)cc21 (some centres unmarked) [14HTL, biotin–JF608–HaloTag ligand] | 0.17 |
| O=C(CCCCC1SCC2NC(=O)NC21)NCCOCCOCCNC(=O)C1C[N+](=c2ccc3c(-c4cc(C(=O)NCCOCCOCCCCCCCl)ccc4C(=O)[O-])c4ccc(N5CCC5)cc4oc-3c2)C1 (centres unmarked) [13HTL, biotin–JF549–HaloTag ligand] | 5.9 |
| C[Si]1(C)C2=CC(=[N+]3CC(F)(C(=O)NCCOCCOCCNC(=O)CCCC[C@@H]4SC[C@@H]5NC(=O)N[C@@H]54)C3)C=CC2=C(c2cc(C(=O)NCCOCCOCCCCCCCl)ccc2C(=O)[O-])c2ccc(N3CC(F)C3)cc21 (some centres unmarked) [16HTL, biotin–JF635–HaloTag ligand] | 0.0032 |
| C[Si]1(C)C2=CC(=[N+]3CC(C(=O)NCCOCCOCCNC(=O)CCCC[C@@H]4SC[C@@H]5NC(=O)N[C@@H]54)C3)C=CC2=C(c2cc(C(=O)NCCOCCOCCCCCCCl)ccc2C(=O)[O-])c2ccc(N3CCC3)cc21 (some centres unmarked) [15HTL, biotin–JF646–HaloTag ligand] | 0.0086 |
| C[Si]1(C)c2cc(N3CC(F)C3)ccc2C2(OC(=O)c3ccc(C(=O)NCCOCCOCCCCCCCl)cc32)c2ccc(N3CC(F)C3)cc21 [6HTL, JF635–HaloTag ligand, reference compound] | 0.0048 |

###

Items are presented alongside their recorded ε.
- measurement.protocol: Spectroscopy of HaloTag ligands and HaloTag conjugates
- Assay type: physicochemical
- condition.set: 10 mM HEPES, pH 7.3
measurement.kind: ε

| compound | reading |
| --- | --- |
| C[Si]1(C)C2=CC(=[N+]3CC(F)(C(=O)NCCOCCOCCNC(=O)CCCC[C@@H]4SC[C@@H]5NC(=O)N[C@@H]54)C3)C=CC2=C(c2cc(C(=O)NCCOCCOCCCCCCCl)ccc2C(=O)[O-])c2ccc(N3CC(F)C3)cc21 (some centres unmarked) | 2,900 M^−1cm^−1 |
| C[Si]1(C)c2cc(N3CC(F)C3)ccc2C2(OC(=O)c3ccc(C(=O)NCCOCCOCCCCCCCl)cc32)c2ccc(N3CC(F)C3)cc21 [6HTL, JF635–HaloTag ligand, reference compound] | ~ 400 M^−1cm^−1 |
| C[Si]1(C)C2=CC(=[N+]3CC(C(=O)NCCOCCOCCNC(=O)CCCC[C@@H]4SC[C@@H]5NC(=O)N[C@@H]54)C3)C=CC2=C(c2cc(C(=O)NCCOCCOCCCCCCCl)ccc2C(=O)[O-])c2ccc(N3CCC3)cc21 (some centres unmarked) | 34,000 M^−1cm^−1 |
| CC1(C)C2=CC(=[N+]3CC(C(=O)NCCOCCOCCNC(=O)CCCC[C@@H]4SC[C@@H]5NC(=O)N[C@@H]54)C3)C=CC2=C(c2cc(C(=O)NCCOCCOCCCCCCCl)ccc2C(=O)[O-])c2ccc(N3CCC3)cc21 (some centres unmarked) | 92,300 M^−1cm^−1 |
| O=C(CCCCC1SCC2NC(=O)NC21)NCCOCCOCCNC(=O)C1C[N+](=c2ccc3c(-c4cc(C(=O)NCCOCCOCCCCCCCl)ccc4C(=O)[O-])c4ccc(N5CCC5)cc4oc-3c2)C1 (centres unmarked) | 92,000 M^−1cm^−1 |
